Origin of values: paper PMC10444810

Tested on: sandwich-cultured PXB-cells
Conditions: human, 20 min, 1 μM
Value kind: Predicted in vivo CLbile, int, Mean (mL/min)
Record the value in mL/min, omitting the unit from your answer.

CN/C(=N/CCSCc1nc[nH]c1C)NC#N [Cimetidine, cimetidine]    60.3
CC[C@]1(O)C[C@H]2CN(CCc3c([nH]c4ccccc34)[C@@](C(=O)OC)(c3cc4c(cc3OC)N(C=O)[C@H]3[C@@](O)(C(=O)OC)[C@H](OC(C)=O)[C@]5(CC)C=CCN6CC[C@]43[C@@H]65)C2)C1 [Vincristine, vincristine]    168

Exercise: Please indicate Predicted in vivo CLbile, int, Mean recorded for C[C@H]1O[C@@H](O[C@H]2[C@@H](O)C[C@H](O[C@H]3[C@@H](O)C[C@H](O[C@H]4CC[C@@]5(C)[C@H](CC[C@@H]6[C@@H]5C[C@@H](O)[C@]5(C)[C@@H](C7=CC(=O)OC7)CC[C@]65O)C4)O[C@@H]3C)O[C@@H]2C)C[C@H](O)[C@@H]1O [Digoxin, digoxin]
Solution: 152
